Source of measurements: the RNAGym collection of RNA variant scans (doi:10.7554/elife.80360)

B1: HDV Ribozyme (parent)
chain: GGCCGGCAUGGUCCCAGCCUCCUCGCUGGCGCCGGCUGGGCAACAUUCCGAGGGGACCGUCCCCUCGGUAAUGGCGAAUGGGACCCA

variants of: B1; assay: self-cleavage, relative activity (ratio to wild type); higher = more cleavage; co-transcriptional
observation type: self-cleavage
Output: the number by itself.

# self-cleavage (variant: U12G C41A ) is 1.06

self-cleavage reading for U12G A83G : 0.89

Query G39U C66G yields self-cleavage of 0.831

# self-cleavage of C64G C85U = 1.17

The value of self-cleavage measured for the variant U27A A43U turned out to be 0.401

self-cleavage measured on G17C G38A = 0.0396

What the record says about C22A A87C : self-cleavage is 0.491

Briefly, self-cleavage measured for G52C G55C : 1.03

Record G2C A43U . Reported self-cleavage: 0.0297

The recorded self-cleavage for G29A A83C is 0.148

Measured self-cleavage of A43C A87U : 0.59

The value of self-cleavage measured for the variant G11C C22G turned out to be 0.0386

In plain terms, C75U C85U has a documented self-cleavage of 0.138

Looking up U12C G38U , I see its self-cleavage listed as 0.0739

# variant G6A A43C ; its self-cleavage = 0.0489

self-cleavage for C44A A56G is 0.875

Lookup result for U9G C61A ; measured self-cleavage: 1.33

In plain terms, G17A G50A has a documented self-cleavage of 0.76

Per the records, this variant ( G38A A45U ) has self-cleavage equal to 0.107

Sure, the documented self-cleavage for G50U C84U is 0.665

// self-cleavage lookup, variant = G1A G53A , result: 0.0449

Lab note: C66U A71U gave self-cleavage of 0.936

Entry G1U U60C — recorded self-cleavage = 0.0811

C62A A70G has a reported self-cleavage of 0.682

Reported self-cleavage ( G59U A70G ) = 1.12

Please fill in: self-cleavage reported for C41G A71G = 0.554

GET /value?item= C44A U46G &field=self-cleavage returns 0.785

Record C57U U65A . Reported self-cleavage: 0.917

Input U20A G38C . Output self-cleavage: 0.119

Recorded result, G11C G38U , self-cleavage: 0.0845

The recorded self-cleavage for A8G C36A is 0.0386

C48G G81A yielded self-cleavage of 0.489

A78U C84U has a reported self-cleavage of 0.252

C19U A77G has a reported self-cleavage of 0.253

// self-cleavage value for U69A C85U : 0.831

Lookup result for C30G U65G ; measured self-cleavage: 0.0346

# self-cleavage (variant: C19U U79A ) is 0.0396

Record G29U G76A , field self-cleavage: 0.107

Per the records, this variant ( C33A U47C ) has self-cleavage equal to 0.0692

So for C21A C36U , the logged self-cleavage turned out to be 0.0339

# self-cleavage of G40U U79G = 0.243

The recorded self-cleavage for G34A A56U is 0.256

Quick note, self-cleavage for C13U A51U landed at 0.802

Value of measured self-cleavage for the entry U27A C48U : 0.95

Entry C44G U65G — recorded self-cleavage = 0.688

Reported self-cleavage of A45C C62U : 0.895
